# Tested on: Yellow fever virus
# assay.info: Antiviral activity against Yellow fever virus
# Assay type: functional, organism-based
Activity calls are given as the source filed them. The calls are words filed in the database; no cut-off is given here.
result.type: Activity

*Q* Which Activity value is on record for C=C(C)[C@@H]1CC[C@]2(C(=O)O)CC[C@]3(C)[C@H](CC[C@@H]4[C@@]5(C)Cc6nnn(Cc7ccc(C)cc7)c6C(C)(C)[C@@H]5CC[C@]43C)[C@@H]12 ?
*A* inactive

*Q* Entry C=C(C)[C@@H]1CC[C@]2(C(=O)O)CC[C@]3(C)[C@H](CC[C@@H]4[C@@]5(C)Cc6nnn(Cc7ccccc7)c6C(C)(C)[C@@H]5CC[C@]43C)[C@@H]12 please
*A* inactive

*Q* Entry CC(C)[C@@H]1CC[C@]2(C(=O)O)CC[C@]3(C)[C@H](CC[C@@H]4[C@@]5(C)Cc6nnn([C@@H](C)c7ccccc7)c6C(C)(C)[C@@H]5CC[C@]43C)[C@@H]12 please
*A* inactive

*Q* Entry C=C(C)[C@@H]1CC[C@]2(C(=O)O)CC[C@]3(C)[C@H](CC[C@@H]4[C@@]5(C)Cc6nnn(Cc7ccco7)c6C(C)(C)[C@@H]5CC[C@]43C)[C@@H]12 please
*A* inactive

*Q* Entry C=C(C)[C@@H]1CC[C@]2(C(=O)O)CC[C@]3(C)[C@H](CC[C@@H]4[C@@]5(C)Cc6nnn(Cc7ccc(C(F)(F)F)cc7)c6C(C)(C)[C@@H]5CC[C@]43C)[C@@H]12 please
*A* inactive

*Q* Entry C=C(C)[C@@H]1CC[C@]2(C(=O)O)CC[C@]3(C)[C@H](CC[C@@H]4[C@@]5(C)Cc6nnn(CCCCCCC)c6C(C)(C)[C@@H]5CC[C@]43C)[C@@H]12 please
*A* inactive

*Q* Entry C=C(C)[C@@H]1CC[C@]2(C(=O)O)CC[C@]3(C)[C@H](CC[C@@H]4[C@@]5(C)Cc6nnn(Cc7ccc(F)cc7)c6C(C)(C)[C@@H]5CC[C@]43C)[C@@H]12 please
*A* inactive

*Q* Entry C=C(C)[C@@H]1CC[C@]2(C(=O)O)CC[C@]3(C)[C@H](CC[C@@H]4[C@@]5(C)Cc6nnn(CCc7c[nH]c8ccccc78)c6C(C)(C)[C@@H]5CC[C@]43C)[C@@H]12 please
*A* inactive

*Q* Entry C=C(C)[C@@H]1CC[C@]2(C(=O)O)CC[C@]3(C)[C@H](CC[C@@H]4[C@@]5(C)Cc6nnn(CCc7c[nH]c8ccc(OC)cc78)c6C(C)(C)[C@@H]5CC[C@]43C)[C@@H]12 please
*A* inactive

Note: attention shifts to another entry.
*Q* Which Activity value is on record for C=C(C)[C@@H]1CC[C@]2(C(=O)O)CC[C@]3(C)[C@H](CC[C@@H]4[C@@]5(C)Cc6nnn(Cc7cc(OC)c(OC)c(OC)c7)c6C(C)(C)[C@@H]5CC[C@]43C)[C@@H]12 ?
*A* inactive

---

# assay.info: Antiviral activity against Human coronavirus 229E infected in human embryonic lung fibroblast cells assessed as reduction in virus-induced cytopathic effect incubated for 5 days by MTS cell viability assay
# Format: functional, cell-based
# applied.conditions: 120 h
result.type: pEC50
In plain terms, pEC50 is the concentration in mol/L turned into minus its base-10 logarithm.

*Q* Which pEC50 value is on record for C=C(C)[C@@H]1CC[C@]2(C(=O)O)CC[C@]3(C)[C@H](CC[C@@H]4[C@@]5(C)Cc6nnn(CCc7c[nH]c8ccccc78)c6C(C)(C)[C@@H]5CC[C@]43C)[C@@H]12 ?
*A* 6.25

*Q* Entry C=C(C)[C@@H]1CC[C@]2(C(=O)O)CC[C@]3(C)[C@H](CC[C@@H]4[C@@]5(C)Cc6nnn(Cc7ccc(F)cc7)c6C(C)(C)[C@@H]5CC[C@]43C)[C@@H]12 please
*A* 5.66

*Q* Entry C=C(C)[C@@H]1CC[C@]2(C(=O)O)CC[C@]3(C)[C@H](CC[C@@H]4[C@@]5(C)Cc6nnn(CC7CCCCC7)c6C(C)(C)[C@@H]5CC[C@]43C)[C@@H]12 please
*A* 4.89

*Q* Entry C=C(C)[C@@H]1CC[C@]2(C(=O)O)CC[C@]3(C)[C@H](CC[C@@H]4[C@@]5(C)Cc6nnn(Cc7cc(OC)c(OC)c(OC)c7)c6C(C)(C)[C@@H]5CC[C@]43C)[C@@H]12 please
*A* 5.72

*Q* Entry C=C(C)[C@@H]1CC[C@]2(C(=O)O)CC[C@]3(C)[C@H](CC[C@@H]4[C@@]5(C)Cc6nnn(Cc7ccncc7)c6C(C)(C)[C@@H]5CC[C@]43C)[C@@H]12 please
*A* 5.60

*Q* Entry C=C(C)[C@@H]1CC[C@]2(C(=O)O)CC[C@]3(C)[C@H](CC[C@@H]4[C@@]5(C)Cc6nnn(Cc7ccccc7)c6C(C)(C)[C@@H]5CC[C@]43C)[C@@H]12 please
*A* 6.07

*Q* Entry C=C(C)[C@@H]1CC[C@]2(C(=O)O)CC[C@]3(C)[C@H](CC[C@@H]4[C@@]5(C)Cc6nnn([C@@H](C)c7ccccc7)c6C(C)(C)[C@@H]5CC[C@]43C)[C@@H]12 please
*A* 6.19

*Q* Entry C=C(C)[C@@H]1CC[C@]2(C(=O)O)CC[C@]3(C)[C@H](CC[C@@H]4[C@@]5(C)Cc6nnn(Cc7ccc(N(C)C)cc7)c6C(C)(C)[C@@H]5CC[C@]43C)[C@@H]12 please
*A* 6.27

*Q* Entry C=C(C)[C@@H]1CC[C@]2(C(=O)O)CC[C@]3(C)[C@H](CC[C@@H]4[C@@]5(C)Cc6nnn([C@H](C)c7ccccc7)c6C(C)(C)[C@@H]5CC[C@]43C)[C@@H]12 please
*A* 5.96

*Q* Entry C=C(C)[C@@H]1CC[C@]2(C(=O)O)CC[C@]3(C)[C@H](CC[C@@H]4[C@@]5(C)Cc6nnn(Cc7ccco7)c6C(C)(C)[C@@H]5CC[C@]43C)[C@@H]12 please
*A* 5.59

*Q* Entry CC(C)[C@@H]1CC[C@]2(C(=O)O)CC[C@]3(C)[C@H](CC[C@@H]4[C@@]5(C)Cc6nnn([C@@H](C)c7ccccc7)c6C(C)(C)[C@@H]5CC[C@]43C)[C@@H]12 please
*A* 4.89

*Q* Entry C=C(C)[C@@H]1CC[C@]2(C(=O)O)CC[C@]3(C)[C@H](CC[C@@H]4[C@@]5(C)Cc6nnn(Cc7cccc8[nH]ccc78)c6C(C)(C)[C@@H]5CC[C@]43C)[C@@H]12 please
*A* 7.04

*Q* Entry C=C(C)[C@@H]1CC[C@]2(C(=O)O)CC[C@]3(C)[C@H](CC[C@@H]4[C@@]5(C)Cc6nnn(CCCCCCC)c6C(C)(C)[C@@H]5CC[C@]43C)[C@@H]12 please
*A* 5.70

*Q* Entry C=C(C)[C@@H]1CC[C@]2(C(=O)O)CC[C@]3(C)[C@H](CC[C@@H]4[C@@]5(C)Cc6nn[nH]c6C(C)(C)[C@@H]5CC[C@]43C)[C@@H]12 please
*A* 5.37

*Q* Entry C=C(C)[C@@H]1CC[C@]2(C(=O)O)CC[C@]3(C)[C@H](CC[C@@H]4[C@@]5(C)Cc6nnn(Cc7ccc(C(F)(F)F)cc7)c6C(C)(C)[C@@H]5CC[C@]43C)[C@@H]12 please
*A* 5.32

*Q* Entry C=C(C)[C@@H]1CC[C@]2(C(=O)O)CC[C@]3(C)[C@H](CC[C@@H]4[C@@]5(C)Cc6nnn(CCc7c[nH]c8ccc(OC)cc78)c6C(C)(C)[C@@H]5CC[C@]43C)[C@@H]12 please
*A* 6.06

*Q* Entry N#C[C@@]1(c2ccc3c(N)ncnn23)O[C@H](CO)[C@@H](O)[C@H]1O please
*A* 5.64

*Q* Entry C=C(C)[C@@H]1CC[C@]2(C(=O)O)CC[C@]3(C)[C@H](CC[C@@H]4[C@@]5(C)Cc6nnn(Cc7ccc8c(c7)OCO8)c6C(C)(C)[C@@H]5CC[C@]43C)[C@@H]12 please
*A* 5.72

---

# Tested on: Respiratory syncytial virus
# assay.info: Antiviral activity against Respiratory syncytial virus
# Format: functional, organism-based
Calls of active or inactive are those of the source. The rule behind the calls is not given here.
result.type: Activity

*Q* Which Activity value is on record for C=C(C)[C@@H]1CC[C@]2(C(=O)O)CC[C@]3(C)[C@H](CC[C@@H]4[C@@]5(C)Cc6nnn(Cc7ccc8c(c7)OCO8)c6C(C)(C)[C@@H]5CC[C@]43C)[C@@H]12 ?
*A* inactive

*Q* Entry C=C(C)[C@@H]1CC[C@]2(C(=O)O)CC[C@]3(C)[C@H](CC[C@@H]4[C@@]5(C)Cc6nnn(Cc7cc(OC)cc(OC)c7)c6C(C)(C)[C@@H]5CC[C@]43C)[C@@H]12 please
*A* inactive

*Q* Entry C=C(C)[C@@H]1CC[C@]2(C(=O)O)CC[C@]3(C)[C@H](CC[C@@H]4[C@@]5(C)Cc6nnn(CC7CCCCC7)c6C(C)(C)[C@@H]5CC[C@]43C)[C@@H]12 please
*A* inactive
